tested target: Carbonic anhydrase 2 (Homo sapiens)
experimental protocol: CAII small-molecule binders, profiling panel, biochemical, small-molecule microarray, Alexa647-labelled CAII (AID 1122)
conditions: CAII-A647 binding fluorescence, higher = more signal
Catalogue of composite z-score readings, one per entry.
// no unit string in output, number only

Solved entries (count: 5):
Input line: // query composite z-score value for entry O=C(N1CCOCC1)[C@@]1(CCS(=O)(=O)c2ccccc2)N=C(c2ccc(OCCCO)cc2)O[C@H]1c1ccccc1
Output line: 0.853

Input line: // query composite z-score value for entry COCCOC(=O)N1C(=O)[C@@]2(c3cc(C#CCCO)ccc31)[C@H](C(=O)N1CCCCCCC1)[C@H]1C(=O)O[C@H](c3ccccc3)[C@H](c3ccccc3)N1[C@@H]2c1ccccc1OCCO
Output line: 0.599

Input line: // query composite z-score value for entry O=C1C2C=CC(C(O)C=Cc3ccc([N+](=O)[O-])cc3)N(Nc3ccccc3)C2C(=O)N1c1ccccc1 (configuration not stated)
Output line: 0.713

Input line: // query composite z-score value for entry CCCCC(=O)N(CCN1CCOCC1)[C@@H]1CC(C(=O)NCCO)=C[C@H](Oc2c(I)cc(CO)cc2OC)[C@H]1O
Output line: -0.142

Input line: // query composite z-score value for entry COc1ccc([Si](C)(C)[C@@H]2[C@@H](CC(=O)N3Cc4ccccc4C[C@H]3CO)O[C@]3(C(=O)N(Cc4ccc(N5CCC5=O)cc4)c4ccccc43)[C@H]2C)cc1
Output line: 0.337

Others:
Input line: // query composite z-score value for entry COC(=O)[C@@]1(Cc2ccc(OC)cc2)[C@H]2c3cc(C(=O)N4CCCC4)n(Cc4ccc(S(C)(=O)=O)cc4)c3C[C@H]2CN1C(=O)c1ccccc1
Output line: 0.583

Input line: // query composite z-score value for entry Cc1ccc(S[C@]2(C(=O)NCc3ccccc3)CC(=O)N(Cc3cc(C(F)(F)F)cc(C(F)(F)F)c3)[C@@H]2c2ccc(CO)cc2I)cc1
Output line: 0.699

* * *

tested target: Calmodulin-1 (Homo sapiens)
experimental protocol: CALM1 binders on microarrays, EGTA buffer, profiling panel, biochemical, small-molecule microarray, Cy5-labelled CALM1 (AID 1111);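 also: labelled calmodulin applied in Tris saline Tween buffer holding calcium plus EGTA and DTT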
conditions: Cy5-CALM1 binding fluorescence, higher = more signal
Catalogue of composite z-score readings, one per entry.
// no unit string in output, number only

Input line: // query composite z-score value for entry O=C1O[C@H](c2ccccc2)[C@H](c2ccccc2)N2[C@H]1[C@@H](C(=O)N1CCCCCCC1)[C@]1(C(=O)Nc3ccc(C#CC4(O)CCCCCC4)cc31)[C@H]2c1ccc(O)cc1
Output line: 2.42

Input line: // query composite z-score value for entry C[C@@]12COC[C@]13C=C(Br)[C@H](C2)[C@@]1(CO1)C3=O
Output line: -0.66

Input line: // query composite z-score value for entry O=C1C2C=CC(C(O)c3ccc4c(c3)OCO4)N(Nc3ccccc3)C2C(=O)N1c1ccccc1 (stereo unspecified)
Output line: 1.36

Input line: // query composite z-score value for entry C=C(CCCC)C(=O)CC[C@@H](OC(=O)c1cccnc1)c1ccc(OCCO)cc1
Output line: -0.588

Input line: // query composite z-score value for entry COCC1=C2[C@@H](CCc3ccccc3)OB(O)C[C@@H]2[C@@H]2C(=O)N(C)C(=O)[C@@H]2C1
Output line: -0.344

Others:
Input line: // query composite z-score value for entry CN(C)CCCC[C@@H]1NC(=O)[C@@H]2C[C@H](C(=O)O)[C@H](c3cccc(OCCO)c3)N2C1=O
Output line: -0.832

Input line: // query composite z-score value for entry COc1cc(NN2C(C(O)c3ccc(I)cc3)C=CC3C(=O)N(c4ccccc4)C(=O)C32)cc(OC)c1OC (stereo unspecified)
Output line: 1.85

Input line: // query composite z-score value for entry O=C(O)[C@@H]1C[C@@H]2C(=O)N3CCC[C@H]3C(=O)N2[C@@H]1c1cccc(OCCO)c1
Output line: 1.69

Input line: // query composite z-score value for entry C=C(COC)C(=O)CC[C@@H](OC(=O)c1cccnc1)c1ccccc1OCCO
Output line: -1.08

Input line: // query composite z-score value for entry C=C(CCCC)C(=O)CC[C@H](OC(C)=O)c1ccc(OCCO)cc1
Output line: -0.0294

Input line: // query composite z-score value for entry COCCOC(=O)N1C(=O)[C@@]2(c3cc(C#CCNC(N)=O)ccc31)[C@H](c1ccc(OCCO)cc1)N1[C@H](c3ccccc3)[C@H](c3ccccc3)OC(=O)[C@H]1[C@@H]2C(N)=O
Output line: 0.741

Input line: // query composite z-score value for entry CCOC(=O)C1=C[C@@H](C(C)(C)C)N(S(=O)(=O)c2ccc(C)cc2)[C@H]1c1ccccc1
Output line: 1.99

Input line: // query composite z-score value for entry COc1cc(NN2C(C(O)c3cc(OC)c(OC)c(OC)c3)C=CC3C(=O)N(c4ccccc4)C(=O)C32)cc(OC)c1OC (stereo unspecified)
Output line: 2.02

Input line: // query composite z-score value for entry CC(C)[Si]1(C(C)C)OCc2cc(-c3ccc(-c4ccc(Cl)c(Cl)c4)o3)nc(CCc3ccccc3)c21
Output line: -0.307

Input line: // query composite z-score value for entry CCOC(=O)C[C@H]1[C@H](OC(=O)c2ccc(-c3ccccc3)cc2)[C@@H](NC(=O)CC(C)C)c2cc(OCCCO)ccc2N1C(=O)c1ccccc1
Output line: 0.232

Input line: // query composite z-score value for entry COC(=O)C1=CC(CCCO)=CC(C)N(Cc2cccc(OC(F)(F)F)c2)C=C1C(=O)OC (stereo unspecified)
Output line: 1.02

* * *

Catalogue of composite z-score readings, one per entry.
experimental protocol: small-molecule microarray binders of probe aEGFR, primary screen, biochemical, biotinylated probe, 635/667 nm fluorescence (AID 1097);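 also: probe is a biotinylated anti-EGFR antibody binding compounds printed on slides; score combines fluorescence near 667 nm and signal to noise of each spot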
conditions: higher = more signal
// no unit string in output, number only

Solved entries (count: 3):
Input line: // query composite z-score value for entry COC(=O)c1c2oc(c1C(=O)OC)C(=O)N1CCC[C@H]1Cn1nncc1CN(Cc1ccccc1)C(=O)N[C@H](CO)CC2
Output line: 0.471

Input line: // query composite z-score value for entry CO[C@H]1O[C@H](CO)[C@@H](OC(=O)CCc2ccccc2)[C@H](OC(=O)c2cc3ccccc3[nH]2)[C@H]1OC(=O)c1cc2ccccc2[nH]1
Output line: -0.0662

Input line: // query composite z-score value for entry C=C(/C(=C/C[C@H](OC(=O)c1ccncc1)c1cccc(OCCO)c1)c1cnc2ccccc2c1)C(C)C
Output line: -0.0578

Others:
Input line: // query composite z-score value for entry O=C1C2C=CC(C(O)c3cc(C(F)(F)F)cc(C(F)(F)F)c3)N(Nc3ccccc3F)C2C(=O)N1c1ccccc1 (centres undefined)
Output line: 0.0061

* * *

experimental protocol: basal RPMI8226 viability, no added stimulus, profiling panel, cell-based, calcein-AM fluorescence, 48 h, PK04 Diversity Set (AID 1166);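 also: cells grown under basal conditions without added stimulus; test concentration not given here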
conditions: RPMI8226 myeloma viability, higher = more signal
Note to self: z-score under -2 means Yes, ties and anything higher get No.

Input line: Below -2 on z-score? Entry NC(=O)[C@H]1[C@@H]2C(=O)O[C@@H](c3ccccc3)[C@@H](c3ccccc3)N2[C@@H](c2ccc(O)cc2)[C@]12C(=O)Nc1ccc(C#CC3=CCCCC3)cc12
Output line: Yes

Others:
Input line: Below -2 on z-score? Entry CO[C@H]1O[C@H](CO)[C@@H](OC(=O)c2ccc(Br)cc2)[C@@H]2OC(=O)[C@H](Cc3ccccc3)C/C=C/C[C@@H](Cc3ccccc3)C(=O)O[C@@H]12
Output line: No

Input line: Below -2 on z-score? Entry O=C1C[C@@](C(=O)NCC(F)(F)F)(c2ccc([N+](=O)[O-])cc2)[C@@H](c2ccc(CO)cc2)N1CC12CC3CC(CC(C3)C1)C2
Output line: Yes

Input line: Below -2 on z-score? Entry Cc1cccc([C@H]2C[C@H]3C(Br)=C[C@@H]2C(=O)[C@]32CO2)c1
Output line: Yes

Input line: Below -2 on z-score? Entry CC1(C)C(=O)C(c2ccccc2)=C2CN3C(=O)N(CCc4ccccc4)C(=O)C3(Cc3ccc(F)cc3)C=C21 (configuration not stated)
Output line: No

Input line: Below -2 on z-score? Entry COc1ccc(C(O)C2C=CC3C(=O)N(c4ccccc4)C(=O)C3N2Nc2ccc(C(C)C)cc2)c2ccccc12 (configuration not stated)
Output line: No

Input line: Below -2 on z-score? Entry C=C(/C(=C/C[C@H](OC(=O)c1ccncc1)c1cccc(OCCO)c1)c1cnc2ccccc2c1)C(C)C
Output line: Yes

* * *

Catalogue of z-score readings, one per entry.
experimental protocol: cell viability in Huh7 cells, primary screen, cytotoxicity control for HCV replication inhibitor project, CellTiter-Glo luminescence, basal, 48 h (AID 1143);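 also: Huh7 hepatoma cells carrying a hepatitis C replication reporter with no stimulus; test concentration not given here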
conditions: Huh7 HCV replicon, higher = more signal, called active from +8 up or from −8 down
// no unit string in output, number only

Solved entries (count: 6):
Input line: // query z-score value for entry O=C1O[C@H](c2ccccc2)[C@H](c2ccccc2)N2[C@H]1[C@@H](C(=O)N1CCCCCCC1)[C@]1(C(=O)Nc3ccc(C#CC4(O)CCCCCC4)cc31)[C@H]2c1ccccc1OCCO
Output line: -3.52

Input line: // query z-score value for entry C=C(COC)/C(=C/C[C@@H](OC(=O)c1ccncc1)c1ccccc1OCCO)c1cc(C(=O)OC)ccc1OC
Output line: -1.88

Input line: // query z-score value for entry NCCCCCNC(=O)[C@H]1C[C@H]2C(=O)N[C@@H](Cc3ccccc3)C(=O)N2[C@H]1c1ccc(O)cc1
Output line: 0.169

Input line: // query z-score value for entry Cc1ccc(C(C)CC(O)C2C=CC3C(=O)N(c4ccccc4)C(=O)C3N2Nc2ccc(C#N)cc2)o1 (centres undefined)
Output line: -1.18

Input line: // query z-score value for entry COCCOC(=O)N1C(=O)[C@@]2(c3cc(C#CCC(C(=O)OC)C(=O)OC)ccc31)[C@H](C(=O)NC[C@H](O)c1ccccc1)[C@H]1C(=O)O[C@H](c3ccccc3)[C@H](c3ccccc3)N1[C@@H]2c1ccc(OCCO)cc1
Output line: -1.01

Input line: // query z-score value for entry CCOC(=O)C[C@H]1[C@H](OC(=O)c2ccc(-c3ccccc3)cc2)[C@@H](NC(=O)CC(C)C)c2cc(OCCCO)ccc2N1C(=O)c1ccccc1
Output line: -0.092

Others:
Input line: // query z-score value for entry COc1cc(NN2C(C(O)c3ccccc3)C=CC3C(=O)N(C)C(=O)C32)cc(OC)c1OC (centres undefined)
Output line: -2.51

Input line: // query z-score value for entry COCCCNC(=O)[C@@]1(Sc2ccc(C)cc2)CC(=O)N(C(C)C)[C@@H]1c1ccc(CO)cc1I
Output line: -4.86

Input line: // query z-score value for entry NC(=O)N1C(=O)C2C(C1=O)C1C=C(CCCO)C2C(C2CC2)N1Cc1cccc(OC(F)(F)F)c1 (centres undefined)
Output line: -0.458

Input line: // query z-score value for entry O=C(N1CCOCC1)[C@@]1(CCS(=O)(=O)c2ccccc2)N=C(c2ccc(OCCCO)cc2)O[C@H]1c1ccccc1
Output line: -1.48

Input line: // query z-score value for entry O=C1C[C@@](C(=O)NCC(F)(F)F)(c2ccc([N+](=O)[O-])cc2)[C@@H](c2ccc(CO)cc2)N1CC12CC3CC(CC(C3)C1)C2
Output line: -5.79

Input line: // query z-score value for entry CN1C(=O)C2C=CC(C(O)c3cc(C(F)(F)F)cc(C(F)(F)F)c3)N(Nc3ccccc3)C2C1=O (centres undefined)
Output line: -0.73

Input line: // query z-score value for entry C=CCC(OC(C)=O)[C@@H]1[C@@H](N(Cc2cc3ccccc3o2)C(=O)c2ccc(-c3ccccc3)cc2)c2cc(OCCCO)ccc2N1C(=O)Cc1ccc(OC)cc1 (some centres undefined)
Output line: 0.0567

Input line: // query z-score value for entry CN1C(=O)[C@@H]2[C@@H](CC(COc3ccccc3)=C([C@H](O)CCc3ccccc3)[C@@H]2CO)C1=O
Output line: -1.03

These entries and their values trace back to PubChem BioAssay.
